# condition.summary: in n-butanol, 308.15 K

| structure.notation | solubility (mole fraction) |
| --- | --- |
| Nc1cnc(Br)cn1 | 0.0106 |

====

# condition.summary: in propylene glycol, 308.15 K

| structure.notation | solubility (mole fraction) |
| --- | --- |
| Nc1cnc(Br)cn1 | 0.00216 |

====

# condition.summary: in n-butanol, 293.15 K
attribute.measured: solubility (mole fraction)

| structure.notation | measurement |
| --- | --- |
| Nc1cnc(Br)cn1 | 0.00757 |

====

# condition.summary: in acetone, 298.15 K
attribute.measured: solubility (mole fraction)

| structure.notation | measurement |
| --- | --- |
| Nc1cnc(Br)cn1 | 0.0108 |
